B1: TPR 5TU (parent)
chain: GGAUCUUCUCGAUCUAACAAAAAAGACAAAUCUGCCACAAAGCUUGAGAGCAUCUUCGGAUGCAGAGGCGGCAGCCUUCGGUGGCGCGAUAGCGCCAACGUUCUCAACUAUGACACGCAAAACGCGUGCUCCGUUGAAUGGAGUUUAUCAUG

- Variants of: B1
- Method description: polymerase ribozyme fitness, log enrichment relative to wild type (log ratio); higher = more active; in vitro selection for triplet polymerase activity
This sample holds only a part of the variants without activity.
Measure: polymerase ribozyme fitness (log ratio)

{"Var": "A20C C57G C105G C149A", "polymerase ribozyme fitness (log ratio)": "≤ -4.2"}
{"Var": "U33A U56A U90A A122C U151G", "polymerase ribozyme fitness (log ratio)": "≤ -4.2"}
{"Var": "A19G U44C U56A C57U C85U C95G", "polymerase ribozyme fitness (log ratio)": "≤ -4.2"}

// each listed variant needs a value for polymerase ribozyme fitness (log ratio)
1. A30U C54G C95A A98U A122C G141C U144C
2. U31C U102A
3. G71A C87G C93A C95G
4. C149U

a:
≤ -4.2
0.128
≤ -4.2
-0.847

Quick one: give me polymerase ribozyme fitness (log ratio) for each item below, same order please.
1. A19U A40C A91U C95G
2. A24U C35A A52U G84A G136A
3. U13G A47G U55A C87U C96U U139G
4. A20C C63U A64C

a:
≤ -4.2
≤ -4.2
≤ -4.2
≤ -4.2
